System: MDA-MB-468
TEST SUMMARY: Growth inhibition of human MDA-MB-468 cells incubated for 48 hrs by sulforhodamine B assay
Type: functional
COND: MDA-MB-468, 48 h
QUANTITY MEASURED: GI50

INSERT INTO assay_data (compound, measured_value) VALUES
  ('COc1ccc(C2=NN(C=O)C(c3cccc(Nc4ccnc5cc(Cl)ccc45)c3)C2)cc1 (stereo not given)', '420 nM'),
  ('O=CN1N=C(c2ccc(Cl)cc2)CC1c1cccc(Nc2ccnc3cc(Cl)ccc23)c1 (stereo not given)', '280 nM'),
  ('COc1cc(C(=O)/C=C/c2cccc(Nc3ccnc4cc(Cl)ccc34)c2)cc(OC)c1OC', '1130 nM'),
  ('COc1ccc(C(=O)/C=C/c2cccc(Nc3ccnc4cc(Cl)ccc34)c2)cc1', '580 nM'),
  ('COc1cccc2c1C(=O)c1c(O)c3c(c(O)c1C2=O)C[C@@](O)(C(=O)CO)C[C@@H]3O[C@H]1C[C@H](N)[C@H](O)[C@H](C)O1', '50 nM');

* * *

Test system: SF-268
TEST SUMMARY: Growth inhibition of human SF268 cells at 10 uM incubated for 48 hrs by sulforhodamine B assay
Format: functional, cell-based
Activity calls are given as the source filed them. The rule behind the calls is not given here.
Labels: active, inactive

INSERT INTO results (compound, group) VALUES
  ('COc1ccc(C2=NN(c3ccc(Cl)cc3)C(c3cccc(Nc4ccnc5cc(Cl)ccc45)c3)C2)cc1 (stereo not given)', 'inactive'),
  ('COc1ccc(C2=NN(C=O)C(c3cccc(Nc4ccnc5cc(Cl)ccc45)c3)C2)cc1 (stereo not given)', 'active'),
  ('Clc1ccc(C2=NN(c3cc(Cl)cc(Cl)c3)C(c3cccc(Nc4ccnc5cc(Cl)ccc45)c3)C2)cc1 (stereo not given)', 'inactive'),
  ('COc1ccc(C2=NN(c3ccccc3)C(c3cccc(Nc4ccnc5cc(Cl)ccc45)c3)C2)cc1 (stereo not given)', 'inactive'),
  ('COc1cc(C2=NN(c3ccc(Cl)cc3)C(c3cccc(Nc4ccnc5cc(Cl)ccc45)c3)C2)cc(OC)c1OC (stereo not given)', 'inactive'),
  ('Clc1ccc(C2=NN(c3ccc(Cl)cc3)C(c3cccc(Nc4ccnc5cc(Cl)ccc45)c3)C2)cc1 (stereo not given)', 'inactive'),
  ('Clc1ccc(C2=NN(c3ccccc3)C(c3cccc(Nc4ccnc5cc(Cl)ccc45)c3)C2)cc1 (stereo not given)', 'inactive'),
  ('COc1ccc(C(=O)/C=C/c2cccc(Nc3ccnc4cc(Cl)ccc34)c2)cc1', 'active'),
  ('COc1cc(C(=O)/C=C/c2cccc(Nc3ccnc4cc(Cl)ccc34)c2)cc(OC)c1OC', 'active'),
  ('O=CN1N=C(c2ccc(Cl)cc2)CC1c1cccc(Nc2ccnc3cc(Cl)ccc23)c1 (stereo not given)', 'active');

* * *

System: Cryptococcus neoformans
TEST SUMMARY: Growth inhibition of Cryptococcus neoformans ATCC 32264 at 3.4 ug/ml incubated for 48 hrs under dark condition by broth microdilution method relative to control
Format: functional
COND: ATCC 32264, 48 h, read-out: GI
QUANTITY MEASURED: inhibition of growth at 3.4 µg/mL (%)

INSERT INTO results (compound, measured_value) VALUES
  ('COc1ccc(C2=NN(c3cc(Cl)cc(Cl)c3)C(c3cccc(Nc4ccnc5cc(Cl)ccc45)c3)C2)cc1 (stereo not given)', 0),
  ('COc1ccc(C2=NN(c3ccc(Cl)cc3)C(c3cccc(Nc4ccnc5cc(Cl)ccc45)c3)C2)cc1 (stereo not given)', 7.99),
  ('O=C(/C=C/c1cccc(Nc2ccnc3cc(Cl)ccc23)c1)c1ccc(Cl)cc1', 49.8),
  ('COc1ccc(C2=NN(c3ccccc3)C(c3cccc(Nc4ccnc5cc(Cl)ccc45)c3)C2)cc1 (stereo not given)', 2.74),
  ('COc1ccc(C2=NN(C=O)C(c3cccc(Nc4ccnc5cc(Cl)ccc45)c3)C2)cc1 (stereo not given)', 4.06);
